# System: TYK2(JH2domain-pseudokinase);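 note: KINOMEscan kinase panel screen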
# RUN_CONDITIONS: concentration: 1 μM,replicates: in singlicate; n = 1
Readings of %Inh for the listed compounds
Answer by giving the amount and then stating its unit.

# count of solved cases: 3
# COMPOUND, %Inh
records = [
    ("Cl.Cl.Nc1nc(-c2ccc3c(N)n[nH]c3c2)cc(N2CCCC(NC(=O)c3ccccc3)C2)n1 (stereo not shown)", "38%"),
    ("Cc1n[nH]c2ccc(-c3cc(OC[C@@H](N)Cc4ccccc4)cnc3-c3ccoc3)cc12.O=C(O)C(F)(F)F.O=C(O)C(F)(F)F", "19%"),
    ("CNC(=O)c1ccccc1Sc1ccc2c(/C=C/c3ccccn3)n[nH]c2c1", "0%"),
]

%Inh for `Cc1ccc(-n2nc(C(C)(C)C)cc2NC(=O)Nc2ccc(OCCN3CCOCC3)c3ccccc23)cc1` is 0%

%Inh for `CCn1c(-c2nonc2N)nc2c(C#CC(C)(C)O)nc(OCCN)cc21.Cl.Cl` is 9%

%Inh for `COc1ccc(C[C@@H](CN)NC(=O)c2cc(Br)c(-c3ccnc4[nH]ccc34)s2)cc1.Cl.Cl` is 23%

%Inh for `Cc1occc1-c1nc(N)c(OC[C@@H](N)Cc2c[nH]c3ccccc23)cc1-c1cc2c(C)n[nH]c2cn1` is 0%
